molecular target: HBO-KAT7 (Homo sapiens, UniProt O95251); construct: encoding amino acid residues 325 to 611 (Uniprot 095251-1) of human KAT7; made in house; host or cells: E. coli BL21 DE3 RIL; experiment: Revised Acetyltransferase Biochemical Assay, KAT7; conditions: Table 9 (HBO-KAT7), 1 μM Acetyl coenzyme A
Sequence (O95251 with tags, fused parts or gaps): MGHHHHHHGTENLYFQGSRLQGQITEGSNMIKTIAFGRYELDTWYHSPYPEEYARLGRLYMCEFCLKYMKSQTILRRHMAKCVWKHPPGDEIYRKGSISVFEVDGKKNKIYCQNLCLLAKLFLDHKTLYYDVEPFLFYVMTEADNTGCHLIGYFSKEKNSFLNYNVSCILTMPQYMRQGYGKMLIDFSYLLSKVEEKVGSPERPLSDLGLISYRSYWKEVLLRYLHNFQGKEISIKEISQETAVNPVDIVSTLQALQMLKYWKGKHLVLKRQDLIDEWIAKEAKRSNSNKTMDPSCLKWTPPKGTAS
Quick list: pIC50 per entry.
// pIC50: -log10(molar conc.)

[[record]]
compound = "O=C(NCC(c1ccccc1)c1ncco1)C1=Nc2ccc(F)cc2S(=O)(=O)N1 (centres unmarked) [Example 36]"
data_value = 5.47

[[record]]
compound = "CCOC(=O)NC(CNC(=O)C1=Nc2ccccc2S(=O)(=O)N1)c1ccccc1 (centres unmarked) [Example 49]"
data_value = 5.50

[[record]]
compound = "O=C(NCC(c1ccccc1)c1ncco1)C1=Nc2ccc(-c3c[nH]nn3)cc2S(=O)(=O)N1 (centres unmarked) [Example 213]"
data_value = 6.95

[[record]]
compound = "O=C(NCC(c1ccccc1)c1ncco1)C1=Nc2ccccc2S(=O)(=O)N1 (centres unmarked) [Example 46]"
data_value = 5.97


# Cc1cc(O)cc(C(CNC(=O)C2=Nc3ccc(I)cc3S(=O)(=O)N2)c2ncco2)c1 (centres unmarked) [Example 222] with HBO-KAT7 (Homo sapiens, UniProt O95251): pIC50 is 7.64

Tested system HBO-KAT7 (Homo sapiens, UniProt O95251); pIC50 recorded for CC(N)c1ccc2c(c1)S(=O)(=O)NC(C(=O)NCC(c1ccccc1)c1ncco1)=N2 (centres unmarked) [Example 208] was 5.35

Lab note: compound O=C(NCC(c1ccccc1)c1ncco1)C1=Nc2ccc(O)cc2S(=O)(=O)N1 (centres unmarked) [Example 8] tested on HBO-KAT7 (Homo sapiens, UniProt O95251); recorded pIC50 was 6.87

* * *

Recorded pIC50 by entry
Target: MOF-KAT8 (Homo sapiens, UniProt Q9H7Z6)
Sequence (Q9H7Z6 177-447): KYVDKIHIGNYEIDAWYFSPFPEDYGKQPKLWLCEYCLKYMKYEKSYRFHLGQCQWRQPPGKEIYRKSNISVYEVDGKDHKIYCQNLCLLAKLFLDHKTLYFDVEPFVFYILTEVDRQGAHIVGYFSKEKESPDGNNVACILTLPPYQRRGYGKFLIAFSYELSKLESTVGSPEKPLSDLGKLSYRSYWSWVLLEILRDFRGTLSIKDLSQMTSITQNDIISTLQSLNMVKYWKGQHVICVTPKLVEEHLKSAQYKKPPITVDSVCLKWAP
Test: Revised Acetyltransferase Biochemical Assay, KAT8
pIC50 field: float, defined as -log10 of concentration (mol/L).

Take a look at these entries with their results.
[[record]]
compound = "Cc1ccc(C(CNC(=O)C2=Nc3ccc(I)cc3S(=O)(=O)N2)c2ncco2)cc1 (stereo not drawn) [Example 169]"
system_name = "MOF-KAT8 (Homo sapiens, UniProt Q9H7Z6)"
readout_type = "pIC50"
data_value = 4.36

[[record]]
compound = "COc1cccc(C(CNC(=O)C2=Nc3ccc(I)cc3S(=O)(=O)N2)c2ncco2)c1 (stereo not drawn) [Example 187]"
system_name = "MOF-KAT8 (Homo sapiens, UniProt Q9H7Z6)"
readout_type = "pIC50"
data_value = 4.85


// sample COc1ccccc1C(CNC(=O)C1=Nc2ccc(Cl)cc2S(=O)(=O)N1)c1ncco1 (stereo not drawn) [Example 178] , its pIC50 was 4.21

All figures here come from patent US20210380548A1.
